Every entry's value here was drawn from PubChem BioAssay.

- test: small-molecule microarray binders of probe aWnt5a, primary screen, biochemical, biotinylated probe, 635/667 nm fluorescence (AID 1113);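 further: score merges 667 nm fluorescence intensity with signal-to-noise per printed feature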
- condition.parameters: higher = more signal
For each record, write down the corresponding composite z-score.
Could you keep your reply to the number by itself?

Query: Using known records, supply composite z-score for CCOC(=O)[C@H](Cc1ccccc1)NC(=O)CCC1CC(OC(=O)NCCc2ccc(F)cc2)CC2(CCCC(COC(=O)NCCOC)O2)O1 (some centres undefined)
Reply: -0.116

Query: // fetch composite z-score given entry COC(=O)[C@H](C)NC(=O)CCC1CC(OC(=O)NCc2ccc3c(c2)OCO3)CC2(CCCC(COC(=O)NCc3cccc(C(F)(F)F)c3)O2)O1 (some centres undefined)
Reply: -0.113

Query: Look up and state reported composite z-score for O=C1[C@H]2[C@H]3[C@H](O)[C@H](O)CC(=NOCc4ccccc4)[C@@H]3CC[C@H]2C(=O)N1C[C@@H]1CCCO1
Reply: -0.117

Query: Return reported composite z-score. Input compound: CC(C)CON=C1C[C@@H](O)[C@@H](O)[C@@H]2[C@@H]3C(=O)N(c4ccc(F)cc4F)C(=O)[C@@H]3CC[C@H]12
Reply: -0.0735

* * *

- test.system: Concanavalin-A (Canavalia ensiformis) (UniProt P02866)
- Sequence (P02866 whole entry, looked up): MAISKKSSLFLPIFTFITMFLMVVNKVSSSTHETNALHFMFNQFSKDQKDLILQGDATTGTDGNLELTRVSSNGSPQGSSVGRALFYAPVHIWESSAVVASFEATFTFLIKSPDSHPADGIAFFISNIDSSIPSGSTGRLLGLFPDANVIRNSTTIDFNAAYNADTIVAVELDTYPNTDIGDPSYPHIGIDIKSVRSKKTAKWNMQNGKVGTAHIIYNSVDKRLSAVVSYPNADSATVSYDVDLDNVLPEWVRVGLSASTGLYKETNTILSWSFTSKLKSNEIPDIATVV
- test: ConA small-molecule binders, primary screen, artefact control for SMM control protein annotation, biochemical, small-molecule microarray, Alexa647 label, 635 nm (AID 1127);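 further: z combines 667 nm emission intensity with signal-to-noise across three replicate slides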
- condition.parameters: ConA-A647 binding fluorescence, higher = more signal
Class MET: composite z-score at least 0.3. Class NOT MET: composite z-score below 0.3.

Query: Could you tell me if the measured composite z-score of COCCNC(=O)OCC1CCCC2(CC(OC(=O)NCc3ccc4c(c3)OCO4)CC(CCC(=O)N[C@@H](C)C(=O)OC)O2)O1 (some centres not stated) reaches 0.3 or more?
Reply: MET

Query: Does the molecule CC(=O)OC[C@H]1O[C@H](CCON=C2[C@H]3CCn4c(=O)n(-c5ccccc5)c(=O)n4[C@H]3[C@H](O)[C@@H]3O[C@H]23)C=C[C@@H]1OC(C)=O have recorded composite z-score that is 0.3 or more?
Reply: NOT MET

Query: Given the entry C[C@@H](ON=C1[C@H]2CCn3c(=O)n(-c4ccccc4)c(=O)n3[C@H]2[C@H](O)[C@@H]2O[C@H]12)c1cn([C@@H]2COC[C@H]2O)nn1 , answer whether its composite z-score meets or surpasses 0.3.
Reply: MET

Query: Check if composite z-score >= 0.3 (inclusive). Item: C[C@@H]1C=CCC(=O)OC[C@H]2O[C@@H](C=C[C@@H]2O)[C@H](C)C=CCC(=O)OC1
Reply: NOT MET

Query: Decide: composite z-score of O=C1CCCC(C2=CCCCC2=O)C1 (configuration not stated) >= 0.3?
Reply: NOT MET

Query: Could you verify whether the entry COC(=O)CC=C[C@@H](C)[C@@H](C=NOC[C@H]1O[C@H](c2ccccc2)C=C[C@@H]1Oc1ccc(OC)cc1)NS(=O)(=O)c1ccc(C)cc1 shows composite z-score of no less than 0.3?
Reply: NOT MET

Query: Has CCOC(=O)C1=NO[C@@]2(C=C(Br)C3(OCCCO3)[C@H]3O[C@H]32)C1 a recorded composite z-score greater than or equal to 0.3?
Reply: MET

* * *

- System: glycogen synthase kinase-3 (GSK3A per assay name; protocol says GSK3B)
- test: GSK3 binders on small-molecule microarrays, primary screen, biochemical, small-molecule microarray, 635 nm fluorescence, GSK3A (AID 1103); further: the record names both GSK3A and GSK3B
- condition.parameters: small-molecule microarray binding, fluorescence 635 nm; higher = more signal
Could you please report measured composite z-score for the items listed next?

Query: Give composite z-score for the following molecule: COC(=O)CC=C[C@H](C)[C@@H](OCc1cccc(Br)c1)[C@@H](C)[C@H](OC)C1CCCCC1
Reply: -1.16

Query: Identify composite z-score associated with the molecule CCOC(=O)[C@H](CC(C)C)NC(=O)CCC1CC(OC(=O)NCc2cccc3ccccc23)CC2(CCCC(COC(=O)NCc3cccc(C(F)(F)F)c3)O2)O1 (stereo partly specified)
Reply: 0.362

Query: Assign composite z-score to the following record: O=C1C=C[C@@H](O)[C@@H]2[C@@H]3C(=O)N(C[C@@H]4CCCO4)C(=O)[C@@H]3CC[C@@H]12
Reply: 0.496

Query: Name the recorded composite z-score of the item COC(=O)CC=C[C@@H](C)[C@@H](C=NOC[C@H]1O[C@H](c2ccccc2)C=C[C@@H]1Oc1ccc(OC)cc1)NS(=O)(=O)c1ccc(C)cc1 in your answer.
Reply: -1.78

Query: Provide one value: measured composite z-score of CCOC(=O)[C@H](Cc1ccccc1)NC(=O)CCC1CC(OC(=O)NCCc2ccc(F)cc2)CC2(CCCC(COC(=O)NCCCN3CCCC3=O)O2)O1 (stereo partly specified)
Reply: 0.843

Query: Item COC(=O)[C@H]1O[C@@H](c2c(OC)c(OC)c(C)c(OC)c2OC)[C@H](C)[C@@H](O)[C@H]1C : provide composite z-score
Reply: 0.824

Query: Find the measured composite z-score of COC(=O)CC=C[C@@H](C)[C@@H](C=NO[C@@H](C)c1cc(-c2c(C)cc(C)cc2C)no1)NS(=O)(=O)c1ccc(C)cc1 and report it.
Reply: -1.46

Query: Quote composite z-score reported for C=C(C)C(=O)OCC1CN2[C@@H](CC[C@@H](C)[C@@H]2c2ccc(Br)cc2)C(=O)O1 (stereo partly specified) please.
Reply: 0.363

Query: Fill in composite z-score for record CCN1C(=O)[C@H]2[C@H]3[C@H](O)[C@H](O)CC(=O)[C@H]3CC[C@H]2C1=O
Reply: 0.713

Query: Consider the molecule CON=C1[C@H]2CCn3c(=O)n(-c4ccccc4)c(=O)n3[C@H]2[C@H](O)[C@@H]2O[C@H]12 . State its measured composite z-score.
Reply: 0.81

Query: Look up and report measured composite z-score for this entry: CC=CC1=C(CO)C(=O)[C@@H]2O[C@@H]2C1=O
Reply: 0.571

Query: Complete the entry with composite z-score for CC(=O)OC[C@H]1O[C@H](CCON=C2[C@H]3CCn4c(=O)n(-c5ccccc5)c(=O)n4[C@H]3[C@H](O)[C@@H]3O[C@H]23)C=C[C@@H]1OC(C)=O
Reply: 0.494

Query: Name the recorded composite z-score of the item COc1cccc([C@H]2Oc3ccc(OC)cc3C(=NOC[C@@H](O)[C@H]3O[C@@H]4OC(C)(C)O[C@@H]4[C@H]3O)[C@@H]2O)c1 in your answer.
Reply: 0.315

Query: Identify composite z-score associated with the molecule CCOC(=O)[C@H](CC(C)C)NC(=O)CCC1CC(OC(=O)NCCc2ccc(F)cc2)CC2(CCCC(COC(=O)NCCc3ccc(Cl)cc3)O2)O1 (stereo partly specified)
Reply: 0.46

Query: Please give measured composite z-score of the following entry: CO[C@@H]1COC(=O)[C@@H](C)NC(=O)CC=C[C@@H](C)[C@H](NS(=O)(=O)c2ccc(C)cc2)COC(=O)[C@H](C)NC(=O)CC=C[C@H]1C
Reply: 0.625

Query: Tell me measured composite z-score for CCOC(=O)[C@H](CC(C)C)NC(=O)CCC1CC(OC(=O)NCc2cccc3ccccc23)CC2(CCCC(COC(=O)NCC3CCCCC3)O2)O1 (stereo partly specified) please.
Reply: 0.941

Query: Report measured composite z-score; entry is C=CC[C@@H]1C=C[C@H](ON=C(C)CCN2CCc3nc(-c4ccccc4)c(-c4ccccc4)cc3C2)[C@@H](CO)O1
Reply: 0.702

Query: Return composite z-score (reported value) for this molecule: CC[C@@H](c1ccccc1)n1c(=O)n2n(c1=O)[C@H]1[C@H](O)[C@@H]3O[C@@H]3C(=O)[C@H]1CC2
Reply: 0.417

Query: Consider the molecule CC(C)CON=C1C[C@@H](O)[C@@H](O)[C@@H]2[C@@H]3C(=O)N(C4CCCCC4)C(=O)[C@@H]3CC[C@@H]12 . State its measured composite z-score.
Reply: -0.925

Query: Identify measured composite z-score associated with CC(C)=CCCC(C)=CCON=C1C[C@@H](O)[C@@H](O)[C@@H]2[C@@H]3C(=O)N(C(C)(C)C)C(=O)[C@@H]3CC[C@@H]12
Reply: 0.426

Query: Answer with reported composite z-score of C[C@@H]1CC[C@H]2C(=O)O[C@@H](COc3ccc(C(C)(C)C)cc3)CN2[C@@H]1c1ccc(Br)cc1
Reply: -0.796

Query: Give the reported composite z-score for this molecule. COc1cccc([C@H]2Oc3ccc(OC)cc3C(=NOC(C)CN3CCCCc4nc(C)c(C)cc43)[C@@H]2O)c1 (stereo partly specified)
Reply: -0.313

Query: Tell me composite z-score reported for COCOc1ccc(Br)cc1C(=O)[C@@H]1O[C@H]1c1cccc(OC)c1
Reply: 0.117

Query: Assign composite z-score to the following record: Cc1ccc(S(=O)(=O)OC[C@H]2CN3[C@H](c4ccc(Br)cc4)[C@@H](C)CC[C@H]3C(=O)O2)cc1
Reply: -0.204

Query: Provide composite z-score value for the following molecule: C[C@H]1CC[C@H]2C(=O)O[C@H](COc3ccc(C(C)(C)C)cc3)CN2[C@@H]1c1ccc(Br)cc1
Reply: 0.102

Query: Supply recorded composite z-score for CCCNC(=O)OC[C@H]1O[C@H](c2ccccc2)C=C[C@@H]1Oc1ccc(OC)cc1 here.
Reply: -0.0811

Query: Query composite z-score for CCCNC(=O)OC[C@H]1O[C@H](CCON=C(C)C)C=C[C@@H]1Oc1ccc(OC)cc1
Reply: -0.515

Query: Report composite z-score, nothing else, for this molecule: COc1ccc(O[C@@H]2[C@H](O)CO[C@H]2C=Cc2ccccc2)cc1
Reply: -0.0395

Query: Supply measured composite z-score of CO[C@@H]1C=CCC(=O)N2CCC[C@H]2C(=O)OC[C@@H](C)C(=O)OC[C@H]1C in your reply.
Reply: 0.484

Query: Using known records, supply composite z-score for CO[C@H]1COC(=O)[C@@H](C)COC(=O)[C@H](C)NC(=O)CC=C[C@H]1C
Reply: 0.732

Query: Entry CO[C@@H]1COC(=O)CC=C[C@@H](C)[C@H](OC)COC(=O)[C@@H](C)COC(=O)CC=C[C@H]1C needs its composite z-score filled in; supply it.
Reply: 0.0478
